MIC for assorted compounds
# System: Staphylococcus aureus ATCC 29213
# protocol_description: microbe, parasite or virus in culture
# test_settings: ATCC 29213
Bridge positions count the residues as written; N and C are the ends. Square brackets hold non-standard residues; d marks the D form. Peptide text beside a SMILES is read from it. ξ: configuration not given here. dNMeF = CN[C@H](Cc1ccccc1)C(=O)O; Ile(3ξ) = CCC(C)[C@H](N)C(=O)O
result_type: MIC (µg/mL)

CCC(C)[C@@H]1NC(=O)[C@H](CCCNC(=N)N)NC(=O)[C@H](NC(=O)[C@H](CO)NC(=O)[C@@H](NC(=O)[C@H](NC(=O)[C@@H](CCC(N)=O)NC(=O)[C@H](CO)NC(=O)[C@@H](NC(=O)[C@@H](Cc2ccccc2)NC)[C@@H](C)CC)[C@H](C)CC)[C@@H](C)CC)[C@H](C)OC(=O)[C@H]([C@@H](C)CC)NC1=O (stereo partly shown) [Compound 34, Arg9-Ile10-teixobactin] (H-[dNMeF]IS[dQ][dI]IS[dT]R[Ile(3ξ)]I; ester 8-C)    1
CCC(C)[C@@H]1NC(=O)[C@H](C)NC(=O)[C@H](NC(=O)[C@H](CO)NC(=O)[C@@H](NC(=O)[C@H](NC(=O)[C@@H](CCC(N)=O)NC(=O)[C@H](CCCNC(=N)N)NC(=O)[C@@H](NC(=O)[C@@H](Cc2ccccc2)NC)[C@@H](C)CC)[C@H](C)CC)[C@@H](C)CC)[C@H](C)OC(=O)[C@H]([C@@H](C)CC)NC1=O (stereo partly shown) [Compound 32, Arg3-Ile10-teixobactin] (H-[dNMeF]IR[dQ][dI]IS[dT]A[Ile(3ξ)]I; ester 8-C)    0.5
CC[C@@H](C)[C@@H](NC(=O)[C@@H](CCCNC(=N)N)NC(=O)[C@H](CO)NC(=O)[C@@H](NC(=O)[C@@H](Cc1ccccc1)NC)[C@@H](C)CC)C(=O)N[C@H](C(=O)N[C@@H](CO)C(=O)N[C@H]1C(=O)N[C@@H](CCCNC(=N)N)C(=O)N[C@@H](CC(C)C)C(=O)N[C@@H]([C@@H](C)CC)C(=O)O[C@H]1C)[C@@H](C)CC [Compound 30, D-Arg4-Arg9-Leu10-teixobactin] (H-[dNMeF]IS[dR][dI]IS[dT]RLI; ester 8-C)    1
